# studySystem: Adenosine receptor A2b (Homo sapiens)
# Sequence (P29275 whole entry): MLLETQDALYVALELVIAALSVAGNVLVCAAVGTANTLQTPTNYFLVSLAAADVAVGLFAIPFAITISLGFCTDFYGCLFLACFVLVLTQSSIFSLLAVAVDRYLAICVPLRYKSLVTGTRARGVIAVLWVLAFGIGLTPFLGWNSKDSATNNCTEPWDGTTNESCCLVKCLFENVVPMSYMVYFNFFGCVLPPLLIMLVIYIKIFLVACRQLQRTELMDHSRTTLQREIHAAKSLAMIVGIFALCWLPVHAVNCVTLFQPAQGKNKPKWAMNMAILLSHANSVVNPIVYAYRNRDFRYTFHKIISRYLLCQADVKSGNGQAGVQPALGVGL
propertyLabel: pKi
Answers are plain numbers, as −log10 of the molar value.

Problem: If you can, please state the reported pKi value of `Nc1nc(-c2ccco2)c2cnn(Cc3cccc(OCCCCCCC(=O)NO)c3)c2n1` .
Solution: 6.29
